# SYSTEM UNDER TEST: InhA (Mycobacterium tuberculosis, UniProt P9WGR1)
# Sequence (P9WGR1 whole entry, looked up): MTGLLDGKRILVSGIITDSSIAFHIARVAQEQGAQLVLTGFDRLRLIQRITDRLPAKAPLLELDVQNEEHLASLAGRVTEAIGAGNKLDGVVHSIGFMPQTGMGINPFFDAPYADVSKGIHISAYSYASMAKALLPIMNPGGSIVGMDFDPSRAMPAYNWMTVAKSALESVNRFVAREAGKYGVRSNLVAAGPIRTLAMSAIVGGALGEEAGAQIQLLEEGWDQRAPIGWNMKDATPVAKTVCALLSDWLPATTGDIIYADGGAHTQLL
# PROTOCOL SUMMARY: InhA enzymatic assay (NADH oxidation at 340 nm, 2-trans-octanoyl-CoA substrate)
# Assay type: biochemical
# CONDITION LABEL: 100 μM compound; read-out: Inh % (inhibition percentage of InhA)
Is inhibition at 100 µM at least 20%? Then 1 (yes). If not, 0 (no).

Check this compound for inhibition at 100 µM at or above 20%: Cc1c(S(=O)(=O)Nc2cccc(CN)c2)sc2ccc(Cl)cc12 [compound 23]
1 (yes)

Check this compound for inhibition at 100 µM at or above 20%: CC(=O)NCc1ccc(NS(=O)(=O)/C=C/c2cccc(C(F)(F)F)c2)cc1 [compound 16]
1 (yes)

Check this compound for inhibition at 100 µM at or above 20%: CC(C)(C)OC(=O)Nc1ccc(NS(=O)(=O)/C=C/c2cccc(C(F)(F)F)c2)cc1 [compound 10]
0 (no)

Check this compound for inhibition at 100 µM at or above 20%: NCc1ccc(NS(=O)(=O)/C=C/c2cccc(C(F)(F)F)c2)cc1 [compound 14]
1 (yes)

Check this compound for inhibition at 100 µM at or above 20%: Cc1c(S(=O)(=O)Nc2cccc(CN)c2)sc2ccc(F)cc12 [compound 24]
1 (yes)

Check this compound for inhibition at 100 µM at or above 20%: NCc1cccc(NS(=O)(=O)CCc2cccc3ccccc23)c1 [compound 22]
0 (no)

Check this compound for inhibition at 100 µM at or above 20%: COC(=O)Cc1ccc(NS(=O)(=O)/C=C/c2cccc(C(F)(F)F)c2)cc1 [compound 13]
1 (yes)

Check this compound for inhibition at 100 µM at or above 20%: O=S(=O)(/C=C/c1cccc(C(F)(F)F)c1)Nc1cccnc1 [compound 8]
0 (no)

Check this compound for inhibition at 100 µM at or above 20%: O=C(O)c1ccc(NS(=O)(=O)/C=C/c2cccc(C(F)(F)F)c2)cc1 [compound 17]
0 (no)

Check this compound for inhibition at 100 µM at or above 20%: COC(=O)c1ccc(NS(=O)(=O)/C=C/c2cccc(C(F)(F)F)c2)cc1 [compound 9]
0 (no)

Check this compound for inhibition at 100 µM at or above 20%: CNCc1ccc(NS(=O)(=O)/C=C/c2cccc(C(F)(F)F)c2)cc1 [compound 15]
0 (no)

Check this compound for inhibition at 100 µM at or above 20%: NCc1cccc(NS(=O)(=O)/C=C/c2cccc(C(F)(F)F)c2)c1 [compound 19]
1 (yes)

Check this compound for inhibition at 100 µM at or above 20%: O=S(=O)(/C=C/c1cccc(C(F)(F)F)c1)NC1CCNCC1 [compound 7]
0 (no)

Check this compound for inhibition at 100 µM at or above 20%: O=S(=O)(/C=C/c1cccc(C(F)(F)F)c1)Nc1ccc2c(c1)CNCC2 [compound 20]
0 (no)

Check this compound for inhibition at 100 µM at or above 20%: O=S(=O)(/C=C/c1cccc(C(F)(F)F)c1)Nc1ccccc1 [compound 6]
1 (yes)

Check this compound for inhibition at 100 µM at or above 20%: Nc1ccc(NS(=O)(=O)/C=C/c2cccc(C(F)(F)F)c2)cc1 [compound 11]
0 (no)

Check this compound for inhibition at 100 µM at or above 20%: COc1ccc(NS(=O)(=O)/C=C/c2cccc(C(F)(F)F)c2)cc1 [compound 12]
0 (no)

Check this compound for inhibition at 100 µM at or above 20%: CC(C)(C)c1ccc(S(=O)(=O)Nc2cccc(CN)c2)cc1 [compound 21]
1 (yes)

Check this compound for inhibition at 100 µM at or above 20%: NCc1cccc(NS(=O)(=O)c2cc3ccccc3s2)c1 [compound 25]
1 (yes)
